// provenance: patent US9920295B2

Test system: CD34+-derived cells (HSC, MPP, CPP)
procedureText: AHR antagonist dose-response on HSC/P subpopulation number
Format: cell-based, human
conditionSummary: without Bleb, 3 days; read-out: HSC number EC50

compound	EC50, nM
Cc1ccccc1N=Nc1ccc(NC(=O)c2ccnn2C)c(C)c1 [CH-223191]	158

====

Tested on: CD34+-derived cells (HSC, MPP, CPP)
procedureText: AHR antagonist dose-response on HSC/P subpopulation number
Format: cell-based, human
conditionSummary: untreated and Bleb, for both; read-out: CPP number EC50
assayReadout: EC50 (nM)

chemSmiles	resultValue
Cc1ccccc1N=Nc1ccc(NC(=O)c2ccnn2C)c(C)c1	750

====

Test system: CD34+-derived cells (HSC, MPP, CPP)
procedureText: HSC/P subpopulation analysis by flow cytometry
Format: cell-based, human
conditionSummary: read-out: inhibition constant Ki, MPPs and CPPs
assayReadout: Ki

compound	resultValue
Cc1ccc2c(c1)C(=O)C1(O)CCN(c3ccccc3)C1=N2 (racemic) [blebbistatin, (±)-blebbistatin]	~10.5 µM

====

Tested on: BM CD34+-derived cells (CD41+ MK)
procedureText: Ploidy analysis of CD34+-derived cells treated with contractility inhibitors (flow cytometry)
Assay type: cell-based, human
conditionSummary: Homo sapiens; dose-response, n≥3 donors; read-out: MK polyploid cell number EC50
pEC50: −log10 of the molar value.
Each entry below carries its recorded pEC50.

chemSmiles	targetEntity	pEC50
C[C@@H](N)[C@H]1CC[C@H](C(=O)Nc2ccncc2)CC1	BM CD34+-derived cells (CD41+ MK)	6.85
c1nc2nc(Nc3ccc(N4CCOCC4)cc3)nc(NC3CCCCC3)c2[nH]1	BM CD34+-derived cells (CD41+ MK)	6.30

====

System: CD34+-derived cells (CFU-GM, BFU-E)
procedureText: Colony forming assay
Assay type: cell-based, human
conditionSummary: absence of Epo, n=3 donors; read-out: BFU-E relative to CFU-GM IC50
pIC50: −log10 of the molar value.
assayReadout: pIC50

compound	assayReadout	resultValue
Cc1ccc2c(c1)C(=O)C1(O)CCN(c3ccccc3)C1=N2 (racemic) [blebbistatin, (±)-blebbistatin]	pIC50	5.00
